Assay text: gradient 5% acetonitrile 3 min, to 50% in 2 min, to 85% in 15 min, held 3 min, 100 µL/min
Condition info: column: Zorbax Extend-C18 2.1 x 50 mm; eluents: water / acetonitrile, 0.1% formic acid
Entries and their RP-LC retention time values follow.

Compound	RP-LC retention time
Cc1cc(N2CCCC2)n2nc(CN3CCN(c4ccccc4F)CC3)nc2n1	622 s
Cc1ccc(NC(=O)Nc2cccn3nc(C)nc23)cc1	803 s
CCOc1ccc(-c2cc3c(=O)n(Cc4nc(-c5ccc(F)cc5)no4)ncn3n2)cc1	1160 s
CCCc1nc(NCc2cccnc2)ncc1C(=O)O	569 s
COc1ccc(-c2nc(C)cc(C)c2CNS(=O)(=O)c2ccccc2)cc1	639 s
O=C(CCc1nc(-c2ccc(N3CCCCCC3)cc2)no1)N1CCCC1	1080 s
CCSc1nnc(NC(=O)C2(c3cc(-c4cccs4)on3)CC2)s1	1020 s
Cc1ccc(C(=O)N2CCc3[nH]nc(C(=O)N(C)C)c3C2)cc1F	625 s
Cn1c(SCC(=O)N2CCCc3ccccc32)nc2cc(-c3ccccc3)sc2c1=O	1180 s
Cc1nc(-c2ccccc2)nc2c1CCC(=O)N2C	868 s
Cc1ccc(Oc2cccc(C(=O)NCCNc3cc(N4CCCC4)nc(C)n3)c2)nn1	562 s
Cc1noc(-c2nn(C)c3c2CN(C(=O)Nc2ccc(Cl)cc2)CC3)n1	790 s
CC1(C(=O)NC2CCCC2)CN(S(=O)(=O)c2ccccc2)CC(=O)N1c1ccc(F)cc1 (stereo not given)	892 s
O=C(Cn1c(=O)n(-c2ccccc2)c2ncccc21)NCCCN1CCOCC1	596 s
Cc1nc(-c2ccc(OC3CCN(C(=O)c4nn(C)c5ccccc45)C3)cc2)no1 (stereo not given)	942 s
C=CCSc1nc(N)c2c(C)c(C(=O)O)sc2n1	708 s
Cc1ccc(=O)n(CC(=O)NCc2cccs2)n1	591 s
COCCNC(=O)CC1CCN(C(=O)c2[nH]c(C)c(C(=O)OC)c2C)CC1	614 s
CC(CCNC(=O)C1CCN(Cc2cn(C)c3ccc(Cl)cc23)CC1)N1CCCCCC1 (stereo not given)	569 s
O=C(COc1ccc(-c2cnc3ccccc3n2)cc1)NCCN1CCCC1	623 s

###

Assay text: gradient 5% acetonitrile 3 min, to 50% in 2 min, to 85% in 15 min, held 3 min, 100 µL/min
Condition info: column: Zorbax Extend-C18 2.1 x 50 mm; eluents: water / acetonitrile, 0.1% formic acid
Entries and their RP-LC retention time values follow.
Readout: RP-LC retention time (s)

Compound	Measurement units	Assay result
COc1ccc(CNc2nc3ccncc3n(C(C)C)c2=O)c(OC)c1	s	681
COc1ccc(C(=O)Oc2ccc[nH]c2=O)cc1	s	721
CCCN(CC1CCOC1)S(=O)(=O)c1ccc(C)c(Cl)c1 (centres undefined)	s	1050
CC(C)c1ccc(-c2nc3ccccc3s2)cc1	s	958
CCCC(=O)N1CCCC(c2nc(CNC(=O)C3CCC3)cs2)C1 (centres undefined)	s	694
CCNC(=O)C1CCCN(c2nc3ncn(CC(=O)Nc4cc(C)ccc4C)c(=O)c3s2)C1 (centres undefined)	s	673
O=C(Cc1cccs1)N1CC(c2noc(C3CCCN3CC3CC3)n2)C1 (centres undefined)	s	599
CCN1CCc2c(sc(-n3cccc3)c2CNC(=O)Nc2cc(C)ccc2OC)C1	s	718
Cc1cc2n(n1)CCC(=O)N2CCCC(=O)N(C)Cc1ccccc1	s	681
Cc1ccc(CNC(=O)C2c3ccccc3CC(=O)N2C)cc1 (centres undefined)	s	748
Cc1[nH]c(C)c(S(=O)(=O)N2CCC(C(=O)Nc3ccccc3F)CC2)c1C(=O)N1CCCC1	s	720
CCNC(=O)CCc1nc2ccccc2n(CC(=O)NCc2ccc(OC)cc2)c1=O	s	700
Cc1noc2nc(CCC(=O)Nc3ccc(Cl)cc3F)nc(N3CCOCC3)c12	s	818
Cn1c(=O)c(N2CCC(C(=O)NCCc3ccco3)CC2)nc2ccccc21	s	794
COc1ccc2nc(C(=O)N3CCCCC3)cc(Nc3ccc(F)c(F)c3)c2c1	s	720
Cc1ccccc1-c1nc2cnccn2c1NCCC(=O)NCc1cccc(Cl)c1	s	717
CCCNC(=O)CCNc1c(-c2ccccc2C)nc2cnccn12	s	607
CCOc1ccccc1NC(=O)Cn1nc2c3sc(N(C)C)nc3ncn2c1=O	s	724
O=c1n(Cc2cccc(C(F)(F)F)c2)nc2ccc(-c3ccccc3)nn12	s	887
